Recorded measurements of Barnyardgrass plant response rating, one per entry
Tested on: barnyardgrass
Experiment: Test A pre-/postemergence herbicide test
Type: in vivo, Echinochloa crus-galli
Settings: preemergence, 500 g ai/ha; visual injury, 0 to 100 scale (0 no effect, 100 complete control)
Give the figure only, with no unit attached.

- compound: "CCNC(=O)c1ccc(F)c(NC(=O)C2CC(C(C)(C)C)=NN2CC)c1 (racemic)"
  Barnyardgrass plant response rating: 95
- compound: "CCNC(=O)c1ccc(F)c(NC(=O)c2cc(C3(C)CC3)nn2CC)c1"
  Barnyardgrass plant response rating: 90
- compound: "CCc1nc(C(C)(C)C)sc1C(=O)Nc1cccc(C(=O)NCCF)c1"
  Barnyardgrass plant response rating: 60
- compound: "CCNC(=O)c1cccc(NC(=O)c2nn(C3CCCC3)nc2CC)c1"
  Barnyardgrass plant response rating: 5
- compound: "CCn1nc(C(C)(C)C)cc1C(=O)Nc1cncc(C(=O)N2CC=CC2)n1"
  Barnyardgrass plant response rating: 40
- compound: "C#CCNC(=O)c1ccc(F)c(NC(=O)c2cc(C(C)(C)C)nn2CC)n1"
  Barnyardgrass plant response rating: 5
- compound: "CCNC(=O)c1ccc(F)c(NC(=O)c2cc(C(C)(C)C)nn2CC)n1"
  Barnyardgrass plant response rating: 50
- compound: "Cn1nc(C(C)(C)C)cc1C(=O)Nc1cccc(C(=O)NC2CC2)n1"
  Barnyardgrass plant response rating: 5

Let's switch to this compound now.
For record CC(=NO)c1cccc(NC(=O)c2cc(C(C)(C)C)n[nH]2)c1 the listed Barnyardgrass plant response rating is 0
